Listed here: items and their measured GI50.
System: panel of 55 breast cancer cell lines
Method description: Cell growth inhibition assay (Cell Titer Glo, 72 h, 9 doses; GI50, TGI, LC50)
Assay type: cell-based, human
Protocol conditions: Homo sapiens, SUM-159-PT, SUM159PT cell line; censored GI50 values; read-out: GI50 (converted)
Where a name gives a salt, the structure may show the parent alone.
Recorded endpoint: GI50 (nM)

CCN(CC)CCNC(=O)c1c(C)[nH]c(/C=C2\C(=O)Nc3ccc(F)cc32)c1C [Sunitinib Malate] : 1550
CCC1=C[C@@H]2CN(C1)Cc1c([nH]c3ccccc13)[C@@](C(=O)OC)(c1cc3c(cc1OC)N(C)[C@H]1[C@@](O)(C(=O)OC)[C@H](OC(C)=O)[C@]4(CC)C=CCN5CC[C@]31[C@@H]54)C2 : 12.3
C/C(=C\c1csc(C)n1)[C@@H]1C[C@@H]2O[C@]2(C)CCC[C@H](C)[C@H](O)[C@@H](C)C(=O)C(C)(C)[C@@H](O)CC(=O)N1 [Ixabepilone] : 6.92
CN(C)C/C=C/C(=O)Nc1cc2c(Nc3ccc(F)c(Cl)c3)ncnc2cc1O[C@H]1CCOC1 : 2570
O=C1c2ccccc2-[n+]2ccc3c([nH]c4ccccc43)c21 : 427
CCCCCN(C)CCC(O)(P(=O)(O)O)P(=O)(O)O [Ibandronate sodium salt] : 42700
CNC(=O)c1cc(Oc2ccc(NC(=O)Nc3ccc(Cl)c(C(F)(F)F)c3)cc2)ccn1 : 21900

====

In this section, each of the compounds is paired with its reported GI50.
Tested on: panel of 55 breast cancer cell lines
Method description: Cell growth inhibition assay (Cell Titer Glo, 72 h, 9 doses; GI50, TGI, LC50)
Format: cell-based, human
Protocol conditions: Homo sapiens, MDA-MB-157, cell line MDAMB157; read-out: GI50 (converted)
Recorded endpoint: GI50 (nM)

COc1cc2ncnc(Nc3ccc(F)c(Cl)c3)c2cc1OCCCN1CCOCC1 [Gefitinib] : 15100
CC(C)C[C@H](NC(=O)[C@H](Cc1ccccc1)NC(=O)c1cnccn1)B(O)O [Bortezomib] : 6.92
COc1cccc2c1C(=O)c1c(O)c3c(c(O)c1C2=O)C[C@@](O)(C(=O)CO)C[C@@H]3O[C@H]1C[C@H](N)[C@H](O)[C@H](C)O1 [Doxorubicin] : 398
C/C(=C\c1csc(C)n1)[C@@H]1C[C@@H]2O[C@]2(C)CCC[C@H](C)[C@H](O)[C@@H](C)C(=O)C(C)(C)[C@@H](O)CC(=O)N1 [Ixabepilone] : 4.9
CCN(CC)CCCCNc1ncc2cc(-c3cc(OC)cc(OC)c3)c(NC(=O)NC(C)(C)C)nc2n1 [PD173074] : 2340
CCC1=C[C@@H]2CN(C1)Cc1c([nH]c3ccccc13)[C@@](C(=O)OC)(c1cc3c(cc1OC)N(C)[C@H]1[C@@](O)(C(=O)OC)[C@H](OC(C)=O)[C@]4(CC)C=CCN5CC[C@]31[C@@H]54)C2 [Vinorelbine] : 12.9

====

System: panel of 55 breast cancer cell lines
Method description: Cell growth inhibition assay (Cell Titer Glo, 72 h, 9 doses; GI50, TGI, LC50)
Type: cell-based, human
Protocol conditions: Homo sapiens, HCC1428, cell line HCC1428; read-out: GI50 (converted)
Recorded endpoint: GI50

CCC1=C[C@@H]2CN(C1)Cc1c([nH]c3ccccc13)[C@@](C(=O)OC)(c1cc3c(cc1OC)N(C)[C@H]1[C@@](O)(C(=O)OC)[C@H](OC(C)=O)[C@]4(CC)C=CCN5CC[C@]31[C@@H]54)C2 : 2.19 µM
COC1=C2C[C@@H](C)C[C@H](OC)[C@H](O)[C@@H](C)/C=C(\C)[C@H](OC(N)=O)[C@@H](OC)/C=C\C=C(/C)C(=O)NC(=CC1=O)C2=O : 0.0316 µM
CC(=O)O[C@H]1C(=O)[C@@]2(C)[C@H]([C@H](OC(=O)c3ccccc3)[C@]3(O)C[C@H](OC(=O)[C@H](O)[C@@H](NC(=O)c4ccccc4)c4ccccc4)C(C)=C1C3(C)C)[C@]1(OC(C)=O)CO[C@@H]1C[C@@H]2O : 16.6 µM
COc1cccc2c1C(=O)c1c(O)c3c(c(O)c1C2=O)C[C@@](O)(C(=O)CO)C[C@@H]3O[C@H]1C[C@H](N)[C@H](O)[C@H](C)O1 : 1.2 µM
CO[C@H]1C[C@@H]2CC[C@@H](C)[C@@](O)(O2)C(=O)C(=O)N2CCCC[C@H]2C(=O)O[C@H]([C@H](C)C[C@@H]2CC[C@@H](OC(=O)C(C)(CO)CO)[C@H](OC)C2)CC(=O)[C@H](C)/C=C(\C)[C@@H](O)[C@@H](OC)C(=O)[C@H](C)C[C@H](C)/C=C/C=C/C=C/1C : 6.17 µM
COc1cc(Nc2c(C#N)cnc3cc(OCCCN4CCN(C)CC4)c(OC)cc23)c(Cl)cc1Cl : 3.89 µM
Nc1nc2[nH]cc(CCc3ccc(C(=O)N[C@@H](CCC(=O)O)C(=O)O)cc3)c2c(=O)[nH]1 : 2950 µM
CCN(CC)CCNC(=O)c1c(C)[nH]c(/C=C2\C(=O)Nc3ccc(F)cc32)c1C [Sunitinib Malate] : 5.13 µM
CC/C(=C(\c1ccccc1)c1ccc(OCCN(C)C)cc1)c1ccccc1 : 3.24 µM
C/C(=C\c1csc(C)n1)[C@@H]1C[C@@H]2O[C@]2(C)CCC[C@H](C)[C@H](O)[C@@H](C)C(=O)C(C)(C)[C@@H](O)CC(=O)N1 [Ixabepilone] : 0.0589 µM
Cc1[nH]c2ccccc2c1CCNCc1ccc(/C=C/C(=O)NO)cc1 : 0.135 µM

====

Tested on: panel of 55 breast cancer cell lines
Method description: Cell growth inhibition assay (Cell Titer Glo, 72 h, 9 doses; GI50, TGI, LC50)
Assay type: cell-based, human
Protocol conditions: Homo sapiens, HCC1806, cell line HCC1806; read-out: GI50 (converted)
One threshold, 0.5 µM, splits the recorded GI50 values: lower ones are yes (1), equal or higher ones are no (0).

CN(C)C/C=C/C(=O)Nc1cc2c(Nc3ccc(F)c(Cl)c3)ncnc2cc1O[C@H]1CCOC1 : no (0)
CCN(CC)CCNC(=O)c1c(C)[nH]c(/C=C2\C(=O)Nc3ccc(F)cc32)c1C [Sunitinib Malate] : no (0)
Cc1ccc(C(=O)N(CCCN)[C@@H](c2nc3cc(Cl)ccc3c(=O)n2Cc2ccccc2)C(C)C)cc1 : yes (1)
Cn1cnc2c(F)c(Nc3ccc(Br)cc3Cl)c(C(=O)NOCCO)cc21 : no (0)
CCN(CC)CCCCNc1ncc2cc(-c3cc(OC)cc(OC)c3)c(NC(=O)NC(C)(C)C)nc2n1 : no (0)

====

System: panel of 55 breast cancer cell lines
Method description: Cell growth inhibition assay (Cell Titer Glo, 72 h, 9 doses; GI50, TGI, LC50)
Assay type: cell-based, human
Protocol conditions: Homo sapiens, MDA-MB-415, cell line MDAMB415; read-out: GI50 (converted)
Below: a set of entries, each annotated with reported log10 GI50.
Recorded endpoint: log10 GI50 (log10 of the value in nM)

COC1=C2C[C@@H](C)C[C@H](OC)[C@H](O)[C@@H](C)/C=C(\C)[C@H](OC(N)=O)[C@@H](OC)/C=C\C=C(/C)C(=O)NC(=CC1=O)C2=O : 1.76
C/C(=C\c1csc(C)n1)[C@@H]1C[C@@H]2O[C@]2(C)CCC[C@H](C)[C@H](O)[C@@H](C)C(=O)C(C)(C)[C@@H](O)CC(=O)N1 [Ixabepilone] : 0.91
Cn1c(=O)n(-c2ccc(C(C)(C)C#N)cc2)c2c3cc(-c4cnc5ccccc5c4)ccc3ncc21 : 2.42
CC(=O)O[C@H]1C(=O)[C@@]2(C)[C@H]([C@H](OC(=O)c3ccccc3)[C@]3(O)C[C@H](OC(=O)[C@H](O)[C@@H](NC(=O)c4ccccc4)c4ccccc4)C(C)=C1C3(C)C)[C@]1(OC(C)=O)CO[C@@H]1C[C@@H]2O : 0.72
Cn1cnc2c(F)c(Nc3ccc(Br)cc3Cl)c(C(=O)NOCCO)cc21 : 4.70
NS(=O)(=O)OC[C@@H]1C[C@@H](n2ccc3c(N[C@H]4CCc5ccccc54)ncnc32)C[C@@H]1O : 1.87
CCC1=C[C@@H]2CN(C1)Cc1c([nH]c3ccccc13)[C@@](C(=O)OC)(c1cc3c(cc1OC)N(C)[C@H]1[C@@](O)(C(=O)OC)[C@H](OC(C)=O)[C@]4(CC)C=CCN5CC[C@]31[C@@H]54)C2 : 1.26

====

Test system: panel of 55 breast cancer cell lines
Method description: Cell growth inhibition assay (Cell Titer Glo, 72 h, 9 doses; GI50, TGI, LC50)
Format: cell-based, human
Protocol conditions: cell line HCC1428; value is the negative log10 of mol/L
Rule for this label: label 1 means GI50 is less than 5; label 0 means GI50 is at least 5.

COc1cccc(-c2cc(=O)c3ccccc3o2)c1N : label 1
N.N.O=C([O-])C1(C(=O)[O-])CCC1.[Pt+2] : label 1
CC(/C=C/C(=O)NO)=C\[C@@H](C)C(=O)c1ccc(N(C)C)cc1 : label 0
N#Cc1c(NC(=O)c2cccc3ccccc23)sc2c1CCCC2 : label 1
CC(C)[C@H](CO)Nc1nc(Nc2cccc(Cl)c2)c2ncn(C(C)C)c2n1 : label 1
COc1ccc(C2=N[C@@H](c3ccc(Cl)cc3)[C@@H](c3ccc(Cl)cc3)N2C(=O)N2CCNC(=O)C2)c(OC(C)C)c1 : label 1
CC(=O)Nc1cccc(-n2c(=O)n(C3CC3)c(=O)c3c(Nc4ccc(I)cc4F)n(C)c(=O)c(C)c32)c1.C[S+](C)[O-] [GSK1120212B] : label 1
O=C1NC(=O)/C(=C/c2ccc(-c3ccc(F)cc3O)o2)S1 : label 0
CCNCCCCNCCCCNCCCCNCCCCNCC=CCNCCCCNCCCCNCCCCNCCCCNCC.Cl.Cl.Cl.Cl.Cl.Cl.Cl.Cl.Cl.Cl (stereo in doubt) : label 0
O=S(=O)(CC1CS1)c1ccc(Oc2ccccc2)cc1 (stereo not drawn) : label 1
Oc1cc(-c2nc(-c3ccccc3)[nH]c2-c2ccncc2)ccc1Cl : label 1
NC(=O)Nc1sc(-c2ccc(F)cc2)cc1C(N)=O : label 0
CCn1cc(-c2ccnc3[nH]c(-c4cccc(CN(C)C)c4)cc23)c(-c2ccc(NC(=O)N(C)C)cc2)n1 : label 0
COc1cc2ncnc(Nc3cccc(Cl)c3)c2cc1OC : label 1
CC(C)Oc1ccc(C(=O)N[C@H](CNC(=O)CN(C)C)Cc2ccc(-c3cn4cccc([C@H](C)O)c4n3)cc2)cc1Cl : label 0
O=C1C(Cl)=C(NCCN2CCOCC2)C(=O)c2ncccc21 : label 0
O=c1[nH]c2ccccc2n1C1CCN(Cc2ccc(-c3nc4cc5[nH]cnc5cc4nc3-c3ccccc3)cc2)CC1 : label 0
C=CCNC1=C2C[C@@H](C)C[C@H](OC)[C@H](O)[C@@H](C)/C=C(\C)[C@H](OC(N)=O)[C@@H](OC)/C=C\C=C(/C)C(=O)NC(=CC1=O)C2=O : label 0
Cc1cc(C(=O)N2CCN(c3cccc(Cl)c3)CC2)n(-c2ccccc2)n1 [XRP44X] : label 0
